Target: 5-HT2B receptor (Homo sapiens, UniProt P41595)
Sequence (P41595 whole entry): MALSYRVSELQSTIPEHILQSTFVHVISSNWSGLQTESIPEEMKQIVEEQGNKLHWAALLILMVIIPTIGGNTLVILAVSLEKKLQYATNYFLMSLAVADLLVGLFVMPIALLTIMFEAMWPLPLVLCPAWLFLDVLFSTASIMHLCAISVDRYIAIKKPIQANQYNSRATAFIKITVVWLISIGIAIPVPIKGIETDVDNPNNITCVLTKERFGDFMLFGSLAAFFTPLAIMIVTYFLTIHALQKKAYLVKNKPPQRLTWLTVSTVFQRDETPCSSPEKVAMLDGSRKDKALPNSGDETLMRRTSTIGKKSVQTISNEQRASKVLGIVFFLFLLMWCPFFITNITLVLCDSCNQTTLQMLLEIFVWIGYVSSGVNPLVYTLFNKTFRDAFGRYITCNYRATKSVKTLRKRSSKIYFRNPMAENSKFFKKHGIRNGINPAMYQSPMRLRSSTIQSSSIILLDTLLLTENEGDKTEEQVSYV
Assay: G protein
Assay type: cell-based
Conditions: read-out: EC50 (Gq); Gq dissociation BRET
Observable: pEC50
Give bare numbers, as −log10 of the molar value.

Ask | Query: pEC50; subject: CC[C@@H](N)Cc1cc(OC)c(C)cc1OC [(R)-Ariadne]
Reply | 6.13

----------
Target: 5-HT2A receptor (Homo sapiens, UniProt P28223)
Sequence (P28223 whole entry): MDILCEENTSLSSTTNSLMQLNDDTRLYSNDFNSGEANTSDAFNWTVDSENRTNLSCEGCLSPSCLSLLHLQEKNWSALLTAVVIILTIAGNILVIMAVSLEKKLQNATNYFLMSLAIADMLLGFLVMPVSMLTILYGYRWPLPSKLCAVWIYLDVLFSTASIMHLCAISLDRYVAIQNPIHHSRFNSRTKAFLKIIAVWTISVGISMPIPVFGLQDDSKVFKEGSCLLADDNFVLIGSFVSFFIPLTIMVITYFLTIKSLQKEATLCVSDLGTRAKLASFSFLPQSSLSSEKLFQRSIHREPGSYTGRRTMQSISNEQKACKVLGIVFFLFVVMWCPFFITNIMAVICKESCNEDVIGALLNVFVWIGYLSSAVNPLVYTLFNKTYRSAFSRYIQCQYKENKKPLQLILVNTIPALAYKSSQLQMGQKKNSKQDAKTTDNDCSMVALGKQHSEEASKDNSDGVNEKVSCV
Assay: G protein
Format: cell-based
Conditions: read-out: EC50 (Gq); Gq dissociation BRET
Observable: EC50

• CC[C@@H](N)Cc1cc(OC)c(C)cc1OC [(R)-Ariadne] = 149 nM

Ask | Query: EC50; subject: CCC(N)Cc1cc(OC)c(I)cc1OC (centres unmarked)
Reply | 16 nM
